Hey, just so you know, these numbers are from patent US20220112288A1.

# measured_target: T1, human CD4 on the surface of SKW3 cells or human PBMCs (human, UniProt P01730 26-458)
# T1 construct: whole, on cells; SKW3 CD4 knockout cells served as the negative cell line; also called hCD4; SKW3 WT
# method_description: FACS confirmation, supernatant on SKW3 WT cells, anti-human kappa FITC; background gMFI 2500

>  <binder>
75110_11D03A (antibody, V domains shown, Tested here as non-clonal hybridoma supernatant from AlivaMab Mouse Kappa mice (detected with anti-mouse Fc and anti-human kappa)) VH: EVQLVESGGGLVQPGGSLRLSCAASGFTFSSYWMSWVRQAPGKGLEWVANINQDGNEKYYVDSVKGRFTISRDNAKNSLFLQMNSLRAEDTAVYYCAREGGQWLALDYWGQGALVTVSS VL: DIQMTQSPSSVSASVGDRVTITCRASQGISSWLAWYQQKPGKAPKFLISGASSLQSGVPSRFSGSGSGTDFTLTISSLQPEDFATYYCQQANSFPWTFGQGTKVEIK

>  <SKW3 WT anti-hu Kappa FITC, gMFI [gMFI]>
4000

$$$$
>  <binder>
75110_04K10A (antibody, V domains shown, Tested here as non-clonal hybridoma supernatant from AlivaMab Mouse Kappa mice (detected with anti-mouse Fc and anti-human kappa)) VH: EVQLVESGGGLVQPGGSLRLSCAASGFTFSSYWMSWVRQAPGKGLEWVANINQDGSEKYYVDSVKGRFTISRDNAKNSLYLQLNSLRAEDTAMYYCAREGGQWLSLDYWGQGTLVTVSS VL: DIQMTQSPSSVSASVGDRVTITCRASQGISSWLAWYQQKPGKAPKVLIYGVSSFQSGVPSRFSGSGSGTDFILTISSLQPEDFATYYCQQANSFPWTFGQGTKVEIK

>  <SKW3 WT anti-hu Kappa FITC, gMFI [gMFI]>
6710

$$$$
